- Assayed system: DR1 (human (endogenous in LG2)) (UniProt P01903)
- Assay text: ELISA
Where no end group is shown, it is not given here.
Recorded endpoint: Kd (nM)
Record the value in nM, omitting the unit from your answer.

Notebook: HLVEALYLVCGERGFFYTPKA (not fully specified (N-terminus); also: biotin (site not given here)) [biotin-B(10-30)] , Kd read as 620
